Give measured Kd for each item. Keep answers brief.
# system: T1, biotinylated CLL-1 (hCLL-1) (human, UniProt Q5QGZ9 65-265, limits assumed, biotinylated (site not stated))
# T1 sequence: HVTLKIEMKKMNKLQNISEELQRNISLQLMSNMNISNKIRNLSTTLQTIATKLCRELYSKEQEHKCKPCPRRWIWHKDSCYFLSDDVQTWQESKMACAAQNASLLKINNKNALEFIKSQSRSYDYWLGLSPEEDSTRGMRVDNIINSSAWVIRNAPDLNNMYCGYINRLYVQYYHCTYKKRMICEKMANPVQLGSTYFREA
# protocol_text: biotinylated CLL-1 on streptavidin sensor tips; antibody at 10, 30, 90 ug/ml; global 1:1 fit

Past entries and their recorded results:
CLL-1 antibody clone G4 (antibody, IgG1, V domains shown, also called 31.G4; 31G4) VH: EVQLQQSGPELVKPGASMKISCKASGYSFTGYTMNWVKQSHEKNLEWIGPINPYNDGTIYNPNFKGKATLTVDKASSTAYMELLSLTSDDPAVYYCARTDDYDDYTMDYWGQGTSVTVSS VL: EIQMTQTPSSLSASLGDRVTISCRASHDISNYLNWYQQKPDGTLKLLIYYTSRLHSGVPSRFSGSGSGTDYSLTISNLEQEDIATYFCQQGKTLLWTFGGGTKLEIK : 0.053 nM
CLL-1 antibody clone M2 (antibody, IgG1, V domains shown) VH: EVQLRQSGPELVKPGASVKMSCKASGYTFTSYFMHWVKQKPGQGLEWIGFINPYNDGTKYNEKFKGKATLTSDKSSSTAYMELNSLTSEDSAVYYCTRDDGYYDYAMDYWGQGTSVTVSS VL: DIQMTQSPSSLSASLGERVSLTCRASQEISVYLSWLQQKPDGTIKRLIYAASTLDSGVPERFSGSRSGSDYSLTISSLESEDFADYYCLQYASYPYTFGGGTKLEIKR : 0.205 nM

Next item in the queue.
Record CLL-1 antibody clone M26 (antibody, V domains shown, Conjugated to saporin in the ADC assays) VH: EVQLQQSGPELVKPGASVKMSCKASGYTFTSYFIHWVKQKPGQGLEWIGFINPYNDGSKYNEKFKGKATLTSDKSSSTAYMELSSLTSEDSAVYYCTRDDGYYGYAMDYWGQGTSVTVSS VL: DIQMTQSPSSLSASLGERVSLTCRATQELSGYLSWLQQKPDGTIKRLIYAASTLDSGVPKRFSGNRSGSDYSLTISSLESEDFADYYCLQYAIYPYTFGGGTKLEIKR , field Kd: 0.214 nM
